Source: ChEMBL document CHEMBL1201862

# System: NCI-H522
# TEST NAME: NCI tumour cell line growth inhibition, 48 h
Activity calls are given as the source filed them. No stated cut-off is given here; in the data, active = GI50 up to about 1.1 µM and inactive = higher.
Outcome codes: YES = active, NO = inactive

INSERT INTO assay_data (molecule, label_value) VALUES
  ('O=S(=O)(Sc1ccc(Cl)cc1)c1ccc(Cl)cc1', 'NO'),
  ('CN(C)CCOc1ccc(-c2c(Oc3ccc(Cl)cc3)c(=O)oc3ccccc23)cc1', 'NO'),
  ('COC1OC(C)C(NC(=O)OCC(Cl)(Cl)Cl)C2OC(C)(C)OC12 (stereo not given)', 'NO'),
  ('NC(=O)/C=C/C(=O)O', 'NO'),
  ('COC(=O)c1c2c(cc3c1CC1(Cc4cc5c(c(C(C)=O)c4C1)CCC5)C3)CCC2 (stereo not given)', 'NO'),
  ('COc1ccc(N2C(=O)/C(=C\c3cc(OC)c(OC)c(OC)c3)S(=O)(=O)C2c2ccccc2)cc1 (stereo not given)', 'NO'),
  ('COC(=O)/C(=C/c1ccc(OC)cc1)c1cc(OC)c(OC)c(OC)c1', 'YES'),
  ('COC(=O)C1=C(O)c2ccc(Cl)cc2S(=O)(=O)N1C', 'NO'),
  ('COC(=O)/C=C1\C(CO[Si](C)(C)C(C)(C)C)OC(n2cc(C)c(=O)n(C)c2=O)C1O[Si](C)(C)C(C)(C)C (stereo not given)', 'NO'),
  ('Cc1ccc(N2C(=O)C(Cl)=C(Cl)C2=O)cc1', 'NO');

----------
# Tested on: Malme-3M
# TEST NAME: NCI tumour cell line growth inhibition, 48 h
Active and inactive are the calls of the source. Rule as the data show it: active = GI50 up to about 1.1 µM and inactive = higher.
As shown below, each of these molecules has a reported GI50 value.
REPORTED ENDPOINT: GI50

INSERT INTO measurements (molecule, reported_endpoint, result) VALUES
  ('O=C1C=C(Sc2ccccc2)c2nccc3c2c1nc1ccccc13', 'GI50', '12.2 µM (inactive)'),
  ('BrC1=CC=C2NCCCCCC/N=C3\C=CC(Br)=CC=C3NCCCCCC/N=C\2C=C1', 'GI50', '> 25.5 µM (inactive)'),
  ('CN1C2(c3ccccc3)C(C(=O)c3ccccc3)=C(C(=O)c3ccccc3)C1(c1ccccc1)c1c(-c3ccccc3)sc(-c3ccccc3)c12', 'GI50', '> 100 µM (inactive)'),
  ('CCOC(=O)c1c[nH]c2cc3c(cc2c1=O)CCS3(=O)=O.CCOC(=O)c1c[nH]c2ccc3c(c2c1=O)S(=O)(=O)CC3', 'GI50', '> 100 µM (inactive)'),
  ('COc1ccccc1-n1c(NN)nc2ccc(Br)cc2c1=O', 'GI50', '39.4 µM (inactive)'),
  ('Nc1ccccc1S(=O)(=O)c1ccccc1', 'GI50', '> 100 µM (inactive)'),
  ('C[C@]12CC/C(=N\O)C=C1CC[C@@H]1[C@@H]2CC[C@]2(C)C(=N/O)/C(=C/c3cccnc3)C[C@@H]12', 'GI50', '17.8 µM (inactive)'),
  ('Cc1cc2c(c3oc(C(O)(CO)C4CO4)cc(=O)c13)C(=O)c1c(O)cccc1C2=O (centres undefined)', 'GI50', '0.00169 µM (active)'),
  ('Cc1c(NC(=S)NC(=O)c2ccc([N+](=O)[O-])cc2)c(=O)n(-c2ccccc2)n1C', 'GI50', '> 100 µM (inactive)');

----------
# Test system: COLO 205
# TEST NAME: NCI tumour cell line growth inhibition, 48 h
Activity calls are given as the source filed them. Rule as the data show it: active = GI50 up to about 1.1 µM and inactive = higher.
Outcome codes: active, inactive

INSERT INTO measurements (molecule, label_value) VALUES
  ('CN(C)Cc1[nH]c2ccccc2c1C(=O)c1ccccc1', 'inactive'),
  ('C/C=C/C(C#N)(/C=C/c1ccccc1)OP1(=O)OC(c2ccccc2)C(C)N1C (stereo not given)', 'inactive'),
  ('N#C/C=C1\C=CC(O)C(O)C1OC1OC(CO)C(O)C(O)C1O (stereo not given)', 'inactive'),
  ('COc1ccc2c(c1)C(=O)CC(N)C2 (stereo not given)', 'inactive'),
  ('COC1CC(Br)(C#N)C1 (stereo not given)', 'inactive'),
  ('CCOCC(=O)N[C@H]1CCc2cc(OC)c(OC)c(OC)c2-c2ccc(SC)c(=O)cc21', 'active'),
  ('O=C1C=C(Sc2ccccc2)c2nccc3c2c1nc1ccccc13', 'inactive'),
  ('CC(C)(C)[Si](C)(C)OCC1OC(n2cc(F)c(=O)[nH]c2=O)CC1O[Si](C)(C)C(C)(C)C (stereo not given)', 'inactive'),
  ('C[C@]12CCC(=O)C=C1CC[C@@H]1C2CC[C@]2(C)c3nn(-c4ccccc4)nc3CC12 (stereo not given in full)', 'inactive'),
  ('CC1=NN(C(=O)Cc2ccccc2)C(=O)/C1=C/c1c(O)ccc2ccccc12', 'inactive');

----------
As shown below, each of these compounds has a reported GI50 value.
# Tested on: SK-OV-3
# TEST NAME: NCI tumour cell line growth inhibition, 48 h
Active and inactive are the calls of the source. Cut-off read from the data, not from the text of the source: active = GI50 up to about 1.1 µM and inactive = higher.
REPORTED ENDPOINT: GI50

INSERT INTO measurements (compound, assayed_system, reported_endpoint, result) VALUES
  ('CC(=O)SCCC1c2[nH]c3ccccc3c2CCN1O (centres undefined)', 'SK-OV-3', 'GI50', '> 100 µM (inactive)'),
  ('CS(=O)(=O)O[C@H]1CN2C[C@@H](O)[C@@H](O)[C@H]2[C@H]1CO.[B]', 'SK-OV-3', 'GI50', '> 100 µM (inactive)'),
  ('CC(=O)/C(=C\c1ccccc1O)C(=O)Nc1ccccc1C', 'SK-OV-3', 'GI50', '51.9 µM (inactive)'),
  ('N#CCCC(CCC#N)(CCC#N)NO', 'SK-OV-3', 'GI50', '> 100 µM (inactive)'),
  ('C/C=C/COc1cc(NC(=S)OC(C)C)ccc1Cl.C/C=C\COc1cc(NC(=S)OC(C)C)ccc1Cl', 'SK-OV-3', 'GI50', '21.9 µM (inactive)'),
  ('Cc1nc2cccc([N+](=O)[O-])c2n1CCCN(C)C', 'SK-OV-3', 'GI50', '> 100 µM (inactive)'),
  ('CS(=O)(=O)CC1=Nc2nnc(CCCCCCCc3nnc4n3C(=O)C(CS(C)(=O)=O)=N4)n2C1=O', 'SK-OV-3', 'GI50', '> 100 µM (inactive)'),
  ('COC(=O)[C@@H]1C[C@@]2(C3C=CN(C(=O)C(F)(F)F)C=C3)c3ccccc3N(C(=O)C(F)(F)F)[C@H]2N1C(=O)OC', 'SK-OV-3', 'GI50', '> 100 µM (inactive)'),
  ('Cc1ccc(NC(=O)/C(=N/N(C)C)C(C2OC(=O)c3ccccc32)[N+](=O)[O-])cc1 (centres undefined)', 'SK-OV-3', 'GI50', '> 100 µM (inactive)'),
  ('Cc1ccc(N2C(=O)C(Cl)=C(Cl)C2=O)cc1', 'SK-OV-3', 'GI50', '44 µM (inactive)'),
  ('COc1cc(-c2cc(CCC(=O)Nc3ccccc3[N+](=O)[O-])n(-c3ccc([N+](=O)[O-])cc3[N+](=O)[O-])n2)ccc1O', 'SK-OV-3', 'GI50', '> 10 µM (inactive)'),
  ('CCN(CC(COc1ccc2c(c1)[n+]([O-])nc(N)[n+]2[O-])OC(C)=O)C(C)=O (centres undefined)', 'SK-OV-3', 'GI50', '15.2 µM (inactive)'),
  ('Cc1c(C(=O)O)n(C)c(=O)n(C)c1=O', 'SK-OV-3', 'GI50', '> 100 µM (inactive)'),
  ('COc1ccc(/C=N/n2c(-c3ccccc3)n[nH]c2=O)c(OC)c1', 'SK-OV-3', 'GI50', '31.8 µM (inactive)'),
  ('NC(=O)/C=C/C(=O)O', 'SK-OV-3', 'GI50', '> 5000 µM (inactive)'),
  ('CC(=O)OC1(C)C=CC(=O)C=C1', 'SK-OV-3', 'GI50', '> 100 µM (inactive)'),
  ('O=C1C=C(Sc2ccccc2)c2nccc3c2c1nc1ccccc13', 'SK-OV-3', 'GI50', '80 µM (inactive)'),
  ('C[N+](C)(C)CC(=O)N/N=C/c1oc(-c2c(O)ccc3ccccc23)c(-c2c(O)ccc3ccccc23)c1[N+](=O)[O-]', 'SK-OV-3', 'GI50', '14.2 µM (inactive)'),
  ('CC(C)(C)/N=c1/n(C(C)(C)C)oc(=O)n1C(C)(C)C', 'SK-OV-3', 'GI50', '> 100 µM (inactive)');

----------
# Test system: UO-31
# TEST NAME: NCI tumour cell line growth inhibition, 48 h
Activity calls are given as the source filed them. No stated cut-off is given here; in the data, active = GI50 up to about 1.1 µM and inactive = higher.
Outcome codes: active, inactive

INSERT INTO results (molecule, label_value) VALUES
  ('O=C1C(Cl)=C(OCCCCl)C(=O)c2c(O)ccc(O)c21', 'inactive'),
  ('CC1=NN(C(=O)Cc2ccccc2)C(=O)/C1=C/c1c(O)ccc2ccccc12', 'inactive'),
  ('COc1c(-c2ccc3c(c2)OCO3)oc2cc3c(c(OC)c2c1=O)OCO3', 'inactive'),
  ('COc1ccc(C2C3=C(COC3=O)Oc3cc4c(cc32)OCO4)c(OC)c1 (stereo not given)', 'inactive'),
  ('Cc1cc2c(c3oc(C(O)(CO)C4CO4)cc(=O)c13)C(=O)c1c(O)cccc1C2=O (stereo not given)', 'active');
